Target or test system: TAS2R60 (Homo sapiens, UniProt P59551)
Construct: expressed in transfected cells
Sequence (P59551 whole entry): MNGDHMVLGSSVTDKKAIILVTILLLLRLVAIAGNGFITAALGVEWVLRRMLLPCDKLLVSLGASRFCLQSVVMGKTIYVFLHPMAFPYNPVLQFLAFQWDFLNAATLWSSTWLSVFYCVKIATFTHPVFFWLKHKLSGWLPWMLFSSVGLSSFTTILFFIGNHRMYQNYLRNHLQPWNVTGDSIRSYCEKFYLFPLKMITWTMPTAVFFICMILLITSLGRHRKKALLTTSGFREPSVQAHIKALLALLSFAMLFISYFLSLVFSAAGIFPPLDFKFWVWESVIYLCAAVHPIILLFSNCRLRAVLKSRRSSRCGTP
Assay explanation: Calcium fluorescence functional assay, TAS2R60 cell line with mouse Gα15
Format: cell-based
Experimental setup: approximately; increasing concentrations of tastant
Quantity name: EC50

Recorded EC50 of CC(=O)[O-].[K+] [potassium acetate] , please.
5 to 10 mM

Recorded EC50 of O=C([O-])c1ccccc1.[K+] [potassium benzoate] , please.
5 to 10 mM

* * *

For each entry below, report its EC50 value.
Target or test system: TAS2R14 (Homo sapiens, UniProt Q9NYV8)
Sequence (Q9NYV8 1-317): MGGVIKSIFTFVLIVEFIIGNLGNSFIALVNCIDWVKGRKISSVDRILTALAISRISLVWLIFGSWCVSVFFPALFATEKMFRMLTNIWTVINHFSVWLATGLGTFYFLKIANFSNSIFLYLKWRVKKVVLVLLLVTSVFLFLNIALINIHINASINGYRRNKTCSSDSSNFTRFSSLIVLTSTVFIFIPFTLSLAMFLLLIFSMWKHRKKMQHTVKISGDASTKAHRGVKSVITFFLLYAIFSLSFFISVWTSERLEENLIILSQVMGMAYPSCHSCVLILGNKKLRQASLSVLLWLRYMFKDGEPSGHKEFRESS
Assay explanation: Calcium fluorescence functional assay, TAS2R14 cell line with mouse Gα15
Experimental setup: approximately; increasing concentrations of tastant

Recorded EC50 of O=C([O-])c1ccccc1.[K+] [potassium benzoate] , please.
5 to 10 mM

Recorded EC50 of CC(=O)[O-].[K+] [potassium acetate] , please.
5 to 10 mM

* * *

Target or test system: TAS2R38 (PAV) (Homo sapiens, UniProt P59533, A49P/I296V)
Sequence (P59533 whole entry A49P/I296V): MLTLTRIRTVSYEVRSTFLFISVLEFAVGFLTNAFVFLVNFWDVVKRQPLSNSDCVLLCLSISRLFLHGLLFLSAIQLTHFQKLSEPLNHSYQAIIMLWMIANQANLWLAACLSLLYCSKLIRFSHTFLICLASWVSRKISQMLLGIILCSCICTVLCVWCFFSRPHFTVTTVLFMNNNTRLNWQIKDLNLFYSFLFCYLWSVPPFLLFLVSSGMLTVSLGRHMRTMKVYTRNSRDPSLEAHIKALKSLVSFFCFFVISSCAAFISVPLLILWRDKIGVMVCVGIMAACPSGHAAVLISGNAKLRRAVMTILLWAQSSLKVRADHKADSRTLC
Assay explanation: Calcium fluorescence functional assay, TAS2R38 (PAV) cell line with mouse Gα15
Experimental setup: approximately; increasing concentrations of tastant
For each entry below, report its EC50 value.

Recorded EC50 of [Cl-].[K+] [KCl] , please.
5 to 15 mM

Recorded EC50 of O=C([O-])c1ccccc1.[K+] [potassium benzoate] , please.
5 to 10 mM

Recorded EC50 of CC1=CC(=O)NS(=O)(=O)O1 [Acesulfame K] , please.
5 to 10 mM

* * *

Target or test system: TAS2R4 (Homo sapiens, UniProt Q9NYW5)
Sequence (Q9NYW5 1-299): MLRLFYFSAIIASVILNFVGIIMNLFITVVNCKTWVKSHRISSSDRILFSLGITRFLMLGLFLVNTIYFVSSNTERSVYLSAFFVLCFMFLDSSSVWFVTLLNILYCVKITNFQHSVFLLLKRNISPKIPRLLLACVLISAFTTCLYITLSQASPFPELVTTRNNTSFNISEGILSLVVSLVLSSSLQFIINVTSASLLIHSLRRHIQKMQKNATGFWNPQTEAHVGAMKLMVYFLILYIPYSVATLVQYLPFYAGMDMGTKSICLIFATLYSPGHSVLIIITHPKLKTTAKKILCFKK
Assay explanation: Calcium fluorescence functional assay, TAS2R4 cell line with mouse Gα15
Experimental setup: approximately; increasing concentrations of tastant
Quantity name: EC50

Recorded EC50 of CC(=O)[O-].[K+] [potassium acetate] , please.
5 to 10 mM

Recorded EC50 of O=C([O-])c1ccccc1.[K+] [potassium benzoate] , please.
5 to 10 mM
